Test system: NCI-H460
Experiment: NCI tumour cell line growth inhibition, 48 h
Active and inactive are the calls of the source. Cut-off read from the data, not from the text of the source: active = GI50 up to about 1.1 µM and inactive = higher.
Outcome codes: label 1 = active, label 0 = inactive

{"molecule": "S=C1NNC(=S)NN1", "group": "label 1"}
{"molecule": "CCCCCCCCCC1CC(=O)NCC(=O)NC(C(C)C)C(=O)NC(CC(C)C)C(=O)NC(C)C(=O)NC(C(C)C)C(=O)O1 (centres undefined)", "group": "label 0"}
{"molecule": "O=C1CC(=O)NC(NN2C(=O)/C(=C/c3ccccc3)N=C2c2ccccc2)=N1", "group": "label 0"}
{"molecule": "Cn1c(=S)[nH]c2sc3c(c2c1=O)CCSC3", "group": "label 0"}
{"molecule": "CCOC(=O)c1ccc(Nc2cnc3ccc(C(F)(F)F)cc3n2)cc1", "group": "label 0"}
{"molecule": "COc1ccc(C(=O)C#Cc2cn(C3CC(O)C(CO)O3)c(=O)[nH]c2=O)cc1 (centres undefined)", "group": "label 0"}
{"molecule": "O=C1C[C@@H]2[C@@H](CCC23CCCC3)N1", "group": "label 0"}
{"molecule": "COc1ccc(C(=O)N(C(=S)OCCOc2ccccc2)c2ccccc2)cc1", "group": "label 0"}
{"molecule": "CC(CN(C)C)C(C#N)(c1ccccc1)c1ccccc1 (centres undefined)", "group": "label 0"}
{"molecule": "CC(=O)O[C@H]1CC[C@H]2[C@@H]3CCc4cc(O)c(I)cc4[C@H]3CC[C@]12C", "group": "label 0"}
{"molecule": "CCn1c2ccccc2c2ccc3c(c21)C(=O)C=CC3=O", "group": "label 0"}
{"molecule": "C=C(C)CNCCN", "group": "label 0"}
{"molecule": "C[C@]12CCC3[C@@H](CC[C@@H]4c5nonc5CC[C@]34C)C1CCC2=O (some centres undefined)", "group": "label 0"}
{"molecule": "C[C@H](CCC1=NCCN1)[C@H]1CC[C@H]2[C@@H]3[C@H](O)C[C@@H]4C[C@H](O)CC[C@]4(C)[C@H]3CC[C@]12C", "group": "label 0"}
{"molecule": "COC1=C(OC)C(=O)C(C/C=C/c2c(Cl)nc3sccn23)=C(C)C1=O", "group": "label 0"}
{"molecule": "Fc1ccc(F)c(/C=N/C23CC4CC(CC(C4)C2)C3)c1", "group": "label 0"}
{"molecule": "CCOC(=O)C1=C(C)N(c2ccc(Cl)cc2)C2(O)C=CC(O)=C3C(=O)c4ccccc4C(=O)C312 (centres undefined)", "group": "label 0"}
{"molecule": "NCCCCNCCCNC(=O)c1csc(-c2nc(CCN)sc2Cl)n1", "group": "label 0"}
{"molecule": "C[Si](C)(OCCS(=O)(=O)O)OC(=C1S(=O)(=O)OCCOS1(=O)=O)c1cccc2ccccc12", "group": "label 0"}
{"molecule": "CCOC(=O)C1(CC)CCCCC(=O)N1 (centres undefined)", "group": "label 0"}
{"molecule": "CC(=O)NCCc1c(-c2[nH]c3ccccc3c2CCNC(C)=O)[nH]c2ccccc12", "group": "label 0"}
{"molecule": "CSc1ccc2c(cc1=O)[C@@H](NC(=O)c1ccc(Cl)cc1)CCc1cc(O)c(O)c(O)c1-2", "group": "label 0"}
{"molecule": "Nc1nc(OCC2CCCCC2)c2nc[nH]c2n1", "group": "label 0"}
{"molecule": "COc1ccc(C2S/C(=C\\c3ccc(O)cc3)C(=O)N2NC(=O)Cc2ccccc2)cc1 (centres undefined)", "group": "label 0"}
{"molecule": "O=C(NCCCCNCCCNC(=O)OCc1ccccc1)OCc1ccccc1", "group": "label 0"}
{"molecule": "O=[N+]([O-])C(=C(N1CCCCC1)N1CCCCC1)/C(Cl)=C(\\Cl)Br", "group": "label 0"}
{"molecule": "O=C(/C=C/c1ccccc1)c1cc(Br)ccc1O", "group": "label 0"}
{"molecule": "CC1OC(=O)C(C(C)C)NC(=O)C(C(C)C)OC(=O)C(C(C)C)NC(=O)C(C)OC(=O)C(C(C)C)NC(=O)C(C(C)C)OC(=O)C(C(C)C)NC(=O)C(C)OC(=O)C(C(C)C)NC(=O)C(C(C)C)OC(=O)C(C(C)C)NC1=O (centres undefined)", "group": "label 1"}
{"molecule": "CCc1ccccc1NC(=O)/C=C/c1ccccc1", "group": "label 0"}
{"molecule": "CC(=O)c1c2c(cc3c1CC1(Cc4ccccc4C1=O)C3)CCC2 (centres undefined)", "group": "label 0"}
{"molecule": "OCCNc1nc2c(N3CCCC3)nc(N3CCNCC3)nc2nc1NCc1ccccc1", "group": "label 0"}
{"molecule": "CC(C)(C)OC(=O)N(CCCN)CCCCN(CCCN)C(=O)OC(C)(C)C", "group": "label 0"}
{"molecule": "CCCCCCCCCCCCCCCCCCNc1ccn(C2OC(COP(=O)(O)OCC3OC(n4ccc(NC(=O)CCCCCCCCCCCCCCCCC)nc4=O)C(OC(C)=O)C3OC(C)=O)C(OC(C)=O)C2OC(C)=O)c(=O)n1 (centres undefined)", "group": "label 0"}
{"molecule": "COc1ccc2c(CCNC(=O)/C=C/c3ccccc3)c(C(C)=O)[nH]c2c1[N+](=O)[O-]", "group": "label 0"}

---

Test system: OVCAR-4
Assay: NCI tumour cell line growth inhibition, 48 h
The source made the active and inactive calls. No stated cut-off is given here; in the data, active = GI50 up to about 1.1 µM and inactive = higher.

{"compound": "COc1ccc(CC2c3cc(OC)c(OC)c(OC)c3CC[N+]2(C)C)cc1Oc1ccc(CC2c3cc4c(c(OC)c3CCN2C)OCO4)cc1 (stereo unspecified)", "GI50": "> 100 µM (inactive)"}
{"compound": "O=C(c1ccccc1)c1ccc2cccc(OC3OC(CO)C(O)C(O)C3O)c2n1 (stereo unspecified)", "GI50": "> 100 µM (inactive)"}
{"compound": "Cc1c2ccccc2c(=O)n2c(-c3ccccn3)cccc12", "GI50": "> 100 µM (inactive)"}
{"compound": "CC1=C(c2ccccc2)C(c2ccccc2)=C(c2ccccc2)C2(c3ccccc3)C(=O)C(C)CN12 (stereo unspecified)", "GI50": "20.8 µM (inactive)"}
{"compound": "CC(N1CCOCC1)C(O)(c1ccccc1)c1ccccn1 (stereo unspecified)", "GI50": "> 100 µM (inactive)"}
{"compound": "c1ccc(N2N=C3N(c4ccccc4)C2N3c2ccccc2)cc1", "GI50": "35.6 µM (inactive)"}
{"compound": "COC(OC)c1cccnc1C", "GI50": "> 100 µM (inactive)"}
{"compound": "C[C@H](NC(=O)OC1C2C=CC(O)C1CC2)c1ccccc1 (stereo partly specified)", "GI50": "> 100 µM (inactive)"}
{"compound": "CON(C)C(=O)CCCO", "GI50": "> 100 µM (inactive)"}
{"compound": "CCCCn1cnc2c(c(CC#N)nn2-c2ccccc2)c1=N", "GI50": "29.8 µM (inactive)"}
{"compound": "Cc1ccc(NC(=O)CC/C(CC(=O)C(C)(C)C)=N/NC(=O)C(N)=O)cc1C", "GI50": "> 100 µM (inactive)"}

---

Test system: A549
Experiment: NCI tumour cell line growth inhibition, 48 h
Calls of active or inactive are those of the source. Cut-off read from the data, not from the text of the source: active = GI50 up to about 1.1 µM and inactive = higher.

{"compound": "S=C1NNC(=S)NN1", "target.under.test": "A549", "GI50": "> 1 µM (active)"}
{"compound": "Cc1nc2nn(C)cc2c(=O)n1/N=C/c1ccccc1", "target.under.test": "A549", "GI50": "> 100 µM (inactive)"}
{"compound": "COC(=O)C1OC(O[C@H]2CC[C@]3(C)[C@H]4CC=C5[C@@H]6CC(C)(C)CC[C@]6(C(=O)OC)[C@H](O)C[C@@]5(C)[C@]4(C)CC[C@H]3C2(C)C)C(O)C(O)C1O (stereo partly drawn)", "target.under.test": "A549", "GI50": "4.08 µM (inactive)"}

---

Tested on: RXF 393
Assay: NCI tumour cell line growth inhibition, 48 h
Active and inactive are the calls of the source. Cut-off read from the data, not from the text of the source: active = GI50 up to about 1.1 µM and inactive = higher.
Outcome codes: y (active), n (inactive)

{"compound": "C/C=C/C(O)P1(=O)N(Cc2ccccc2)[C@@H]2CCCC[C@H]2N1Cc1ccccc1 (stereo partly specified)", "group": "n"}
{"compound": "CC(C)(C)[Si](C)(C)OCCCCC1CC2(S(=O)(=O)C3=CC=C=C=C3)ON1CC2S(=O)(=O)c1ccccc1 (stereo unspecified)", "group": "n"}
{"compound": "O=C1N/C(=N\\C2CCCCC2)C2(CCN(CCCC3(c4ccc(F)cc4)OCCO3)CC2)N1c1ccccc1", "group": "n"}
{"compound": "O=S(=O)(CC#CCS(=O)(=O)c1ccccc1)c1ccccc1", "group": "n"}
{"compound": "O=C(OCCN=c1c2ccccc2ccc2ccccc12)c1ccccc1", "group": "n"}
{"compound": "CC(=O)Nc1ccc2c3c(cc(O)c2c1)N(C(=O)CCCC(=O)N1CC(CCl)c2c1cc(O)c1cc(NC(C)=O)ccc21)CC3CCl (stereo unspecified)", "group": "y"}
{"compound": "NC(=S)Nc1ccc2c(c1)oc1ccccc12", "group": "n"}
{"compound": "COC(=O)C1=C(C)NC(CF)=C(C(=O)OC)C1c1cccc2c(=O)c3ccccc3oc12 (stereo unspecified)", "group": "n"}
{"compound": "C/C(=N\\NC(=S)NC(C)(C)C)c1ccccn1", "group": "y"}
{"compound": "COc1cc(C2C3=C(COC3=O)Oc3cc4c(cc32)OCO4)cc(OC)c1OC (stereo unspecified)", "group": "y"}
{"compound": "CCOC(=O)CC/C(C)=N\\n1c(Cc2ccc(Cl)cc2)n[nH]c1=O", "group": "n"}
{"compound": "Cc1cc2c(ccc3c(C)cc(=O)oc32)o1", "group": "n"}
{"compound": "O=C(N/C(=C/c1cccc([N+](=O)[O-])c1)c1nc2cc(Cl)ccc2[nH]1)c1ccccc1", "group": "n"}
{"compound": "COC(=O)C1=C(C(=O)OC)C2OC1c1cc3ccccc3cc12", "group": "n"}
{"compound": "Cc1cc(=O)nc(S(=O)(=O)NC(=O)Nc2cccc(Cl)c2)[nH]1", "group": "n"}
{"compound": "CCOC(=O)C(NC(=O)c1ccccc1)(Nc1cc(C)on1)C(F)(F)F (stereo unspecified)", "group": "n"}

These entries and their values trace back to ChEMBL document CHEMBL1201862.
